Target: human Farnesoid X Receptor (FXR) ligand binding domain (GST-FXR LBD) (Homo sapiens, UniProt Q96RI1)
Sequence (Q96RI1 193-472 isoform Q96RI1-2): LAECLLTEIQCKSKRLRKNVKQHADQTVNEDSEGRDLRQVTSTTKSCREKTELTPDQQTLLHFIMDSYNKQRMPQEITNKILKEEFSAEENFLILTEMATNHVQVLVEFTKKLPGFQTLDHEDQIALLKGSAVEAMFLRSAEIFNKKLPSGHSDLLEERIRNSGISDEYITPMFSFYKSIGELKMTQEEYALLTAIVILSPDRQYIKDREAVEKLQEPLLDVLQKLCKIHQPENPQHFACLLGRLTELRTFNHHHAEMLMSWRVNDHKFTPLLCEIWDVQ
Experiment: Human GST-FXR LBD co-activator interaction assay (FXR HTRF assay)
Conditions: ligand-dependent interaction of GST-FXR LBD with biotin-labeled SRC-1 peptide, response relative to GW4064, read-out: FXR coactivator interaction assay (HTRF)
pEC50: −log10 of the molar value.
pEC50 of 7 or higher: T. Under 7: F.

Structure Smiles String	Class Assignment
Cn1nc(C(=O)N(CCNC(=O)NCC2CC2)Cc2ccccc2F)c2c1-c1cc(Cl)ccc1OC2	F
Cn1nc(C(=O)N(CC(=O)NC2CCC2)Cc2ccccc2F)c2c1-c1cc(Cl)ccc1OC2	T
Cn1nc(C(=O)N(CC(=O)NCCC(F)(F)F)Cc2cccc(F)c2)c2c1-c1cc(Cl)ccc1OC2	T
Cn1nc(C(=O)N(CC(=O)NCCF)Cc2ccccc2F)c2c1-c1cc(Cl)ccc1OC2	T
CC(C)NC(=O)CN(Cc1cc(F)ccc1F)C(=O)c1nn(C)c2c1COc1ccc(Br)cc1-2	T
CC(C)C(=O)NCCN(Cc1ccccc1)C(=O)c1nn(C)c2c1COc1ccc(Cl)cc1-2	T
Cn1nc(C(=O)N(CC(=O)NC2CC2)Cc2cccc(F)c2F)c2c1-c1cc(Cl)ccc1OC2	T
CNC(=O)c1ccc(NC(=O)CN(Cc2ccccc2F)C(=O)c2nn(C)c3c2COc2ccc(Cl)cc2-3)cc1	F
Cn1nc(C(=O)N(CC(=O)NCC2CC2)Cc2ccccc2F)c2c1-c1cc(Cl)ccc1OC2	T
Cn1nc(C(=O)N(Cc2ccccc2)Cc2ccc(C(N)=O)cc2)c2c1-c1cc(Cl)ccc1OC2	F
Cn1nc(C(=O)N(CCNc2nccs2)Cc2cccc(F)c2)c2c1-c1cc(Cl)ccc1OC2	F
CC(C)S(=O)(=O)NCCN(Cc1ccccc1)C(=O)c1nn(C)c2c1COc1ccc(Br)cc1-2	F
CC(C)NC(=O)CN(Cc1c(F)cccc1F)C(=O)c1nn(C)c2c1COc1ccc(Cl)cc1-2	F
CNC(=O)CN(Cc1ccccc1)C(=O)c1nn(C)c2c1COc1ccc(Br)cc1-2	F
